Biological target: hCAII (Homo sapiens (Human))
Assay: Carbonic Anhydrase (Esterase) Biochemical Assay, hCAII

| Smiles String | Study System | IC50 |
| --- | --- | --- |
| C[C@H]1c2ccc(-c3ccccn3)cc2C[C@@H]1C(=O)N1CCc2cc(F)c(S(N)(=O)=O)cc21 | hCAII (Homo sapiens (Human)) | ≥ 50 µM |

###

Target: UniProt P00918
Assay: Carbonic Anhydrase (Esterase) Biochemical Assay, hCAII
Details: read-out: IC50-hCAII; 4-nitrophenyl acetate hydrolysis, 60 min
Let's look at some compounds and their measured IC50.

| Compound | IC50 |
| --- | --- |
| NS(=O)(=O)c1ccc2c(c1)N(C(=O)C1Cc3ccc(-c4cccc(F)n4)cc3C1)CC2 (centres unmarked) | ≥ 25 µM |
| NS(=O)(=O)c1ccc2c(c1)N(C(=O)C1Cc3ccc(-c4ncccc4F)cc3C1)CC2 (centres unmarked) | ≥ 25 µM |
| NS(=O)(=O)c1ccc2c(c1)N(C(=O)[C@@H]1Cc3ccc(-c4ccccn4)cc3C1)CC2 | ≥ 25 µM |
| C[C@H]1c2ccc(-c3ccccn3)cc2C[C@@H]1C(=O)N1CCc2ccc(S(N)(=O)=O)cc21 | ≥ 50 µM |
| NS(=O)(=O)c1ccc2c(c1)N(C(=O)C1Cc3ccc(-c4nccnc4F)cc3C1)CC2 (centres unmarked) | ≥ 25 µM |
